TARGET: T1, human GARP (glycoprotein A repetitions predominant, LRRC32) on the cell surface (human, UniProt Q14392 20-662)
T1 construct: whole, on cells; also called hGARP; free GARP
T1 sequence (looked up): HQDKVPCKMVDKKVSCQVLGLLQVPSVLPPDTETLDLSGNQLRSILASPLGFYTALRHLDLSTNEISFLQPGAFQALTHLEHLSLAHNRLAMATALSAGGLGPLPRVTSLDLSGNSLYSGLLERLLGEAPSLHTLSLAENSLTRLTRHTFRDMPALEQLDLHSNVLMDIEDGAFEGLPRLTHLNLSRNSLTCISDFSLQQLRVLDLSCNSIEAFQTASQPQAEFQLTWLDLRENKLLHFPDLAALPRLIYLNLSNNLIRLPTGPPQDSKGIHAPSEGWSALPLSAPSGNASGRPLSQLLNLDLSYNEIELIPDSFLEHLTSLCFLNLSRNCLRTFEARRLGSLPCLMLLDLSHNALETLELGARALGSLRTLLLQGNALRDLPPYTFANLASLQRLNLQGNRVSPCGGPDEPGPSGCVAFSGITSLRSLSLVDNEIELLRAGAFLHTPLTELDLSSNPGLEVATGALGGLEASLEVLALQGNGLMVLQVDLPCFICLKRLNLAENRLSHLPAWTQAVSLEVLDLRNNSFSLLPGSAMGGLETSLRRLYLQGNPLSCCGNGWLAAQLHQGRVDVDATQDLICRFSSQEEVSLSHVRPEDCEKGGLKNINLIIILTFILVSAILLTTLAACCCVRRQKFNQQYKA
MEASUREMENT DESCRIPTION: FACS, Ag(+) cells, heated-sample series, 0 ug/ml antibody (blank)
MEASURED METRIC: MFI (MFI)
Please give a number only; it is taken to be in MFI.

Recorded results for 2 binders are shown here.
{"BINDER": "huPIIO-1VH2VL1 (antibody, V domains shown, Humanized IgG from Expi293; also called H2L1; HuPIIO-1VH2/L1) VH: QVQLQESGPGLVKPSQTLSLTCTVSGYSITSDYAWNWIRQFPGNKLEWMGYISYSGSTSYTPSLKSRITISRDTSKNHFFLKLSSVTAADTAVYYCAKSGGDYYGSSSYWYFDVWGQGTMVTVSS VL: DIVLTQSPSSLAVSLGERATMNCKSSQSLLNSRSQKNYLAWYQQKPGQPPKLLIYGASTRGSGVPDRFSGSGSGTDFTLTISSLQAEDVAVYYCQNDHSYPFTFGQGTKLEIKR", "READOUT UNITS": "MFI", "MFI": 9.91}
{"BINDER": "huPIIO-1VH2VL3 (antibody, V domains shown, Humanized IgG from Expi293, tested as culture supernatant; also called H2L3; HuPIIO-1VH2/L3) VH: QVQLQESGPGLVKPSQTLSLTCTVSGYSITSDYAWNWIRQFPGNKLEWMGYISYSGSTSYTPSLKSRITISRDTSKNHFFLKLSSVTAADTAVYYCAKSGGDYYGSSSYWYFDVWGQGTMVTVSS VL: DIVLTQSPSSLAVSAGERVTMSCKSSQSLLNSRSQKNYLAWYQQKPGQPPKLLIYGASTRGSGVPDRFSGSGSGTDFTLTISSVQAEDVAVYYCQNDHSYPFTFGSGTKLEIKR", "READOUT UNITS": "MFI", "MFI": 9.91}

In the following, a different binder is considered.
Which MFI is reported for this binder? huPIIO-1VH1VL3 (antibody, V domains shown, Humanized IgG from Expi293, tested as culture supernatant; also called H1L3; HuPIIO-1VH1/L3) VH: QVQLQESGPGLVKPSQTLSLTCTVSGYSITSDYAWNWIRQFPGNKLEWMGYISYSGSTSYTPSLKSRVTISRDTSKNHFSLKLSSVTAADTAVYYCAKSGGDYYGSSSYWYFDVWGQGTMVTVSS VL: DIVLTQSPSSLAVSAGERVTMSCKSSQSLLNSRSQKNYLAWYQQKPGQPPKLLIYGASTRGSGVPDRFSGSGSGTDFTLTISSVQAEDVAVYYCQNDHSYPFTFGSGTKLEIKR 9.91

Measured values drawn from patent US20240425571A1 for this set.
